Target: ITK kinase (Homo sapiens (Human), UniProt Q08881)
Sequence (Q08881 whole entry): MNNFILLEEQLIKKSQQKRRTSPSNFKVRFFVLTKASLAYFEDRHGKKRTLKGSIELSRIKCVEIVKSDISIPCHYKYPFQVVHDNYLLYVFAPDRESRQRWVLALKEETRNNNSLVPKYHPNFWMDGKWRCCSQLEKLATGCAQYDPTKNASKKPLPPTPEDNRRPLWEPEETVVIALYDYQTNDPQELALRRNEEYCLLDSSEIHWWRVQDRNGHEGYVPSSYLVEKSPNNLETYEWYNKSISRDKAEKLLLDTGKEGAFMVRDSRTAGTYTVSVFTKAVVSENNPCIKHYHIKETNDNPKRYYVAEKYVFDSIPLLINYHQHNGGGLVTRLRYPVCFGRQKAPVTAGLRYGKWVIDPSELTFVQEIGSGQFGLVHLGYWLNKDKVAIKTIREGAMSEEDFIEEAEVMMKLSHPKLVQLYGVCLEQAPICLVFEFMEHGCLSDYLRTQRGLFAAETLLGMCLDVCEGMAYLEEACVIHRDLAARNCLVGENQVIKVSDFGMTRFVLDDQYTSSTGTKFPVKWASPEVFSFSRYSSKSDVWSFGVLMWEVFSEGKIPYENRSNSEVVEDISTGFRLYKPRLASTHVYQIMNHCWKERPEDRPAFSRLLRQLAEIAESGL
Assay: ITK kinase enzymatic assay (same HTRF method as BTK)
Type: biochemical
Conditions: Table 1; read-out: Itk IC50
measurement.kind: IC50

# example entries with known answers
| smiles.notation | IC50 |
| --- | --- |
| CC#CC(=O)N[C@H]1CC[C@@H](n2nc(-c3ccc(Oc4ccccc4)cc3)c(C(N)=O)c2N)CC1 | > 1000 nM |
| NC(=O)c1c(-c2ccc(Oc3ccccc3)cc2)nn([C@@H]2CCN(C(=O)/C=C/CN3CCOCC3)C2)c1N | > 1000 nM |

Per the records, this molecule ( C=CS(=O)(=O)N1CC[C@@H](n2nc(-c3ccc(Oc4ccccc4)cc3)c(C(N)=O)c2N)C1 ) has IC50 equal to < 100 nM

For CC#CC(=O)N1CC[C@@H](n2nc(-c3ccc(Oc4ccccc4)cc3)c(C(N)=O)c2N)C1 the molecule record lists IC50 as > 1000 nM

// IC50 lookup, molecule = CC(=O)OC/C=C/C(=O)N1CC[C@@H](n2nc(-c3ccc(Oc4ccccc4)cc3)c(C(N)=O)c2N)C1 , result: > 1000 nM

Measured IC50 of C=CS(=O)(=O)N1CCC[C@@H](n2nc(-c3ccc(Oc4ccccc4)cc3)c(C(N)=O)c2N)C1 : < 100 nM

Lab book: IC50 of NC(=O)c1c(-c2ccc(Oc3ccccc3)cc2)nn([C@@H]2CCN(C(=O)/C=C/CN3CCCCC3)C2)c1N noted as > 1000 nM

// IC50 value for C#CC(=O)N1CC[C@@H](n2nc(-c3ccc(Oc4ccccc4)cc3)c(C(N)=O)c2N)C1 : < 100 nM

IC50 reported for this molecule COC/C=C/C(=O)N1CC[C@@H](n2nc(-c3ccc(Oc4ccccc4)cc3)c(C(N)=O)c2N)C1 : > 1000 nM

Quick note, IC50 for NC(=O)c1c(-c2ccc(Oc3ccccc3)cc2)nn([C@@H]2CCN(C(=O)/C=C\C(=O)O)C2)c1N landed at > 1000 nM

Form: molecule = NC(=O)c1c(-c2ccc(Oc3ccccc3)cc2)nn([C@@H]2CCN(C(=O)/C=C/CBr)C2)c1N ; IC50 = > 1000 nM

// field: IC50; key: CN(C)C/C=C/C(=O)N1CC[C@@H](n2nc(-c3ccc(Oc4ccccc4)cc3)c(C(N)=O)c2N)C1 ; value = > 1000 nM

Documented IC50 of C/C=C/C(=O)N1CC[C@@H](n2nc(-c3ccc(Oc4ccccc4)cc3)c(C(N)=O)c2N)C1 : > 1000 nM

IC50 recorded for this molecule, NC(=O)c1c(-c2ccc(Oc3ccccc3)cc2)nn([C@@H]2CCN(C(=O)/C=C/CN3CCCC3)C2)c1N , is > 1000 nM

The molecule identified as CC(C)/C=C/C(=O)N1CC[C@@H](n2nc(-c3ccc(Oc4ccccc4)cc3)c(C(N)=O)c2N)C1 registered its IC50 at > 1000 nM

====

Here, each record is paired with measured IC50 data.
Biological target: ITK kinase (Homo sapiens (Human), UniProt Q08881)
Experiment: ITK kinase enzymatic assay (same HTRF method as BTK)
Assay type: biochemical
Details: Table 1; read-out: Itk IC50

As a guide, the following entries are already answered.
| compound | IC50 |
| --- | --- |
| CS(=O)(=O)NC/C=C/C(=O)N1CC[C@@H](n2nc(-c3ccc(Oc4ccccc4)cc3)c(C(N)=O)c2N)C1 [Example 14] | > 1000 nM |
| NC(=O)c1c(-c2ccc(Oc3ccccc3)cc2)nn([C@@H]2CCN(C(=O)/C=C/CO)C2)c1N [Example 15] | > 1000 nM |

Field: next compound
NC(=O)c1c(-c2ccc(Oc3ccccc3)cc2)nn([C@@H]2CCN(C/C=C/C(=O)O)C2)c1N [Example 10] has a reported IC50 of > 1000 nM

====

Molecular target: ITK kinase (Homo sapiens (Human), UniProt Q08881)
Experiment: ITK kinase enzymatic assay (same HTRF method as BTK)
Format: biochemical
Conditions: Table 5, kinase selectivity test; read-out: IC50 (nM) ITK
Experimental: The compounds were gradiently diluted 3 folds starting from 1 mM with 100% DMSO (totally 11 concentrations). […] The enzyme activity for each compound was determined at 11 concentrations, and IC50 values were obtained by GraFit Software 6.0 (Erithacus Software). In vitro activity in inhibiting ITK kinase was determined similar to that in respect of BTK kinase.
measurement.kind: IC50

The molecule identified as COC/C=C/C(=O)N1CC[C@@H](n2nc(-c3ccc(Oc4ccccc4)cc3)c(C(N)=O)c2N)C1 registered its IC50 at > 1000 nM
